- Tested on: Mycobacterium tuberculosis
- assay info: Antimycobacterial activity against Mycobacterium bovis BCG after 5 days by MTT assay
- Assay type: functional, organism-based
- cond: variant bovis BCG, 120 h
pIC50: −log10 of the molar value.

[
  {
    "structure": "Cc1ncnc2c1c(-c1ccco1)cn2[C@@H]1O[C@H](CO)[C@@H](O)[C@H]1O",
    "pIC50": 4.41
  },
  {
    "structure": "Cc1nc(N)c2c(-c3cc4ccccc4o3)cn([C@@H]3O[C@H](CO)[C@@H](O)[C@H]3O)c2n1",
    "pIC50": "< 4.00"
  },
  {
    "structure": "Nc1nc2c(c(-c3ccccc3)cn2[C@@H]2O[C@H](CO)[C@@H](O)[C@H]2O)c(=O)[nH]1",
    "pIC50": "< 4.00"
  },
  {
    "structure": "O=c1[nH]cnc2c1c(-c1ccccc1)cn2[C@@H]1O[C@H](CO)[C@@H](O)[C@H]1O",
    "pIC50": "< 4.00"
  },
  {
    "structure": "C#Cc1cn([C@@H]2O[C@H](CO)[C@@H](O)[C@H]2O)c2nc(N)nc(OC)c12",
    "pIC50": "< 4.00"
  },
  {
    "structure": "Cc1nc(N)c2ccn([C@@H]3O[C@H](CO)[C@@H](O)[C@H]3O)c2n1",
    "pIC50": "< 4.00"
  },
  {
    "structure": "Cc1ncnc2c1c(-c1ccsc1)cn2[C@@H]1O[C@H](CO)[C@@H](O)[C@H]1O",
    "pIC50": 4.73
  },
  {
    "structure": "Cc1nc(N)c2c(-c3ccsc3)cn([C@@H]3O[C@H](CO)[C@@H](O)[C@H]3O)c2n1",
    "pIC50": "< 4.00"
  },
  {
    "structure": "COc1ncnc2c1c(-c1ccco1)cn2[C@@H]1O[C@H](CO)[C@@H](O)[C@H]1O",
    "pIC50": "< 4.00"
  },
  {
    "structure": "CN(C)c1ncnc2c1c(-c1cc3ccccc3o1)cn2[C@@H]1O[C@H](CO)[C@@H](O)[C@H]1O",
    "pIC50": "< 4.00"
  },
  {
    "structure": "CN(C)c1ncnc2c1c(I)cn2[C@@H]1O[C@H](CO)[C@@H](O)[C@H]1O",
    "pIC50": "< 4.00"
  },
  {
    "structure": "COc1nc(N)nc2c1c(-c1ccco1)cn2[C@@H]1O[C@H](CO)[C@@H](O)[C@H]1O",
    "pIC50": "< 4.00"
  },
  {
    "structure": "O=c1[nH]cnc2c1c(-c1cccs1)cn2[C@@H]1O[C@H](CO)[C@@H](O)[C@H]1O",
    "pIC50": "< 4.00"
  },
  {
    "structure": "CNc1ncnc2c1c(-c1cc3ccccc3o1)cn2[C@@H]1O[C@H](CO)[C@@H](O)[C@H]1O",
    "pIC50": "< 4.00"
  },
  {
    "structure": "Cc1nc(N)c2c(-c3ccoc3)cn([C@@H]3O[C@H](CO)[C@@H](O)[C@H]3O)c2n1",
    "pIC50": "< 4.00"
  },
  {
    "structure": "Cc1ncnc2c1c(-c1cc3ccccc3o1)cn2[C@@H]1O[C@H](CO)[C@@H](O)[C@H]1O",
    "pIC50": 5.68
  },
  {
    "structure": "COc1ncnc2c1c(I)cn2[C@@H]1O[C@H](CO)[C@@H](O)[C@H]1O",
    "pIC50": "< 4.00"
  },
  {
    "structure": "CN(C)c1ncnc2c1ccn2[C@@H]1O[C@H](CO)[C@@H](O)[C@H]1O",
    "pIC50": "< 4.00"
  },
  {
    "structure": "CN(C)c1ncnc2c1c(-c1ccccc1)cn2[C@@H]1O[C@H](CO)[C@@H](O)[C@H]1O",
    "pIC50": "< 4.00"
  },
  {
    "structure": "CSc1ncnc2c1c(-c1ccoc1)cn2[C@@H]1O[C@H](CO)[C@@H](O)[C@H]1O",
    "pIC50": "< 4.00"
  },
  {
    "structure": "Nc1ncnc2c1c(-c1cccs1)cn2[C@@H]1O[C@H](CO)[C@@H](O)[C@H]1O",
    "pIC50": 5.33
  },
  {
    "structure": "Nc1nc2c(c(-c3cc4ccccc4o3)cn2[C@@H]2O[C@H](CO)[C@@H](O)[C@H]2O)c(=O)[nH]1",
    "pIC50": "< 4.00"
  },
  {
    "structure": "CNc1ncnc2c1c(-c1ccco1)cn2[C@@H]1O[C@H](CO)[C@@H](O)[C@H]1O",
    "pIC50": "< 4.00"
  },
  {
    "structure": "O=c1[nH]cnc2c1c(-c1ccsc1)cn2[C@@H]1O[C@H](CO)[C@@H](O)[C@H]1O",
    "pIC50": "< 4.00"
  },
  {
    "structure": "Cc1ncnc2c1c(-c1cccs1)cn2[C@@H]1O[C@H](CO)[C@@H](O)[C@H]1O",
    "pIC50": 4.85
  },
  {
    "structure": "CSc1ncnc2c1c(-c1ccccc1)cn2[C@@H]1O[C@H](CO)[C@@H](O)[C@H]1O",
    "pIC50": "< 4.00"
  },
  {
    "structure": "CSc1ncnc2c1c(-c1cccs1)cn2[C@@H]1O[C@H](CO)[C@@H](O)[C@H]1O",
    "pIC50": "< 4.00"
  },
  {
    "structure": "CNc1ncnc2c1c(-c1ccoc1)cn2[C@@H]1O[C@H](CO)[C@@H](O)[C@H]1O",
    "pIC50": "< 4.00"
  }
]
